Hey, just so you know, these numbers are from patent US6429204B1.

Tested on: COLO 205 Cells
procedure_text: MTS cytotoxicity assay, COLO 205
condition: 10 μM, two days
Entries whose percent cytotoxicity is below 4% take t; entries at or above 4% take f.

Solved entries (count: 4):
1. CN(C)C1C(=O)C(C#N)=C(O)C2(O)C(=O)C3=C(O)c4c(O)cccc4C(C)(O)C3CC12 (stereo not drawn) [CMT-2, tetracyclinonitrile] = f
2. CC1(O)c2cccc(O)c2C(=O)C2=C(O)C3(O)C(=O)C(C(N)=O)=C(O)C(O)C3CC21 (stereo not drawn) [CMT-6] = t
3. NC(=O)C1=C(O)CC2CC3Cc4cccc(O)c4C(=O)C3=C(O)C2(O)C1=O (stereo not drawn) [CMT-3] = f
4. CC1(O)c2cccc(O)c2C(=O)C2=C(O)C3C(=O)C(C(N)=O)=C(O)CC3CC21 (stereo not drawn) [CMT-7] = t

Next compound, please.
Exercise: Does the reported percent cytotoxicity of C[C@H]1c2cccc(O)c2C(O)=C2C(=O)[C@]3(O)C(O)=C(C(N)=O)C(=O)C[C@@H]3[C@@H](O)[C@@H]21 [CMT-8] stay below 4%?
Solution: f

###

Test system: E-10 Cells
procedure_text: MTS cytotoxicity assay, E-10
condition: 50 μM, two days
Below, each entry is listed alongside its reported percent cytotoxicity.
Give the quantity in %, number only.

1. CN(C)C1C(=O)C(C#N)=C(O)C2(O)C(=O)C3=C(O)c4c(O)cccc4C(C)(O)C3CC12 (centres unmarked) [CMT-2, tetracyclinonitrile] = 0

As a next step, examine the compound that follows.
Exercise: Request the reported percent cytotoxicity associated with CC1(O)c2cccc(O)c2C(=O)C2=C(O)C3(O)C(=O)C(C(N)=O)=C(O)C(O)C3CC21 (centres unmarked) [CMT-6]
Solution: 7.6

###

procedure_text: MTS cytotoxicity assay, COLO 205
condition: human, COLO 205 colon carcinoma cells, percent cytotoxicity, 50 μM, two days
Below, each entry is listed alongside its reported cytotoxicity at 2 days, 50 µM.
Give the quantity in %, number only.

1. NC(=O)C1=C(O)CC2CC3Cc4cccc(O)c4C(=O)C3=C(O)C2(O)C1=O (centres unmarked) = 79

Exercise: Request the reported cytotoxicity at 2 days, 50 µM associated with C[C@H]1c2cccc(O)c2C(=O)C2=C(O)[C@]3(O)C(=O)C(C(N)=O)=C(O)[C@@H](N(C)C)[C@@H]3[C@@H](O)[C@@H]21 [Doxycycline, 6α-deoxy-5-hydroxy-tetracycline, reference compound]
Solution: 58.8

###

Below, each entry is listed alongside its reported cytotoxicity at 2 days, 20 µM.
procedure_text: MTS cytotoxicity assay, COLO 205
condition: human, COLO 205 colon carcinoma cells, percent cytotoxicity, 20 μM, two days
Give the quantity in %, number only.

1) C[C@H]1c2cccc(O)c2C(=O)C2=C(O)[C@]3(O)C(=O)C(C(N)=O)=C(O)[C@@H](N(C)C)[C@@H]3[C@@H](O)[C@@H]21 [Doxycycline, 6α-deoxy-5-hydroxy-tetracycline, reference compound] = 45.7

As a next step, examine the compound that follows.
Exercise: Request the reported cytotoxicity at 2 days, 20 µM associated with NC(=O)C1=C(O)CC2CC3Cc4cccc(O)c4C(=O)C3=C(O)C2(O)C1=O (centres unmarked)
Solution: 52

###

Test system: C8161 human melanoma cells
procedure_text: In vitro invasion assay (MICS), laminin/collagen IV/gelatin matrix-coated filter
Type: cell-based
condition: 3, 20 and 50 μg/mL, 48 hr
outcome_measure: Percent Inhibition of invasive potential

Below, 4 molecules whose answers are already recorded.
1) CC1(O)c2cccc(O)c2C(=O)C2=C(O)C3(O)C(=O)C(C(N)=O)=C(O)C(O)C3CC21 (centres unmarked) [CMT-6] = 8-50%
2) CC1(O)c2cccc(O)c2C(=O)C2=C(O)C3(O)C(=O)C(C(N)=O)=C(O)CC3CC21 (centres unmarked) [CMT-1, 4-de(dimethylamino)tetracycline] = 26-58%
3) NC(=O)C1=C(O)CC2CC3Cc4cccc(O)c4C(=O)C3=C(O)C2(O)C1=O (centres unmarked) [CMT-3] = 35-74%
4) C[C@H]1c2cccc(O)c2C(O)=C2C(=O)[C@]3(O)C(O)=C(C(N)=O)C(=O)C[C@@H]3[C@@H](O)[C@@H]21 [CMT-8] = ˜12%

Exercise: Request the reported Percent Inhibition of invasive potential associated with CC1(O)c2c(Cl)ccc(O)c2C(=O)C2=C(O)C3(O)C(=O)C(C(N)=O)=C(O)CC3CC21 (centres unmarked) [CMT-4, 4-de(dimethylamino)-7-chlorotetracycline]
Solution: ˜20%
